Below: a set of entries, each annotated with reported Ki.
molecular target: Trypanothione reductase (Trypanosoma cruzi); test: Inhibition of Trypanosoma cruzi recombinant trypanothione reductase by spectrophotometry-based mixed inhibition type assay
Quick note: give the figure in µM, leave out the unit.

COc1cc(C(=N)NC2CCC(CC3CCC(/N=C(\N)c4ccc(OCc5ccccc5)c(OC)c4)CC3)CC2)ccc1OCc1ccccc1 (configuration not stated)
16

Proceeding to the next molecule to report its Ki.
Q: Entry under review: `COc1cc2nc(N3CCN(C4=CC(=O)c5ccccc5C4=O)CC3)nc(N)c2cc1OC` . Reported Ki?
A: 22

====

Collected IC50 values appear next to each entry.
test system: L6; assay: Cytotoxicity against rat L6 cells; format: cell-based
Field format: number, assumed µM, no unit text.

Recorded IC50, per entry:
COc1cc2nc(N3CCN(C(=O)Cc4c[nH]c5ccccc45)CC3)nc(N)c2cc1OC
19.6
COc1cc2nc(N3CCN(C(=O)[C@@H]4Cc5ccccc5CN4)CC3)nc(N)c2cc1OC
14.2
COc1cc2nc(N3CCN(C4=CC(=O)c5ccccc5C4=O)CC3)nc(N)c2cc1OC
2.76
COc1cc2nc(N3CCN(C(=O)[C@H]4Cc5ccccc5CN4)CC3)nc(N)c2cc1OC
37.2

Now for a further molecule.
Q: Record request: IC50 value, item `COC1=CC(=O)C=C(N2CCN(c3nc(N)c4cc(OC)c(OC)cc4n3)CC2)C1=O`
A: 52.5

====

Each entry below lists one item and its recorded Ki value.
biological target: Trypanothione reductase (Trypanosoma cruzi, UniProt P28593); assay: Inhibition of Trypanosoma cruzi recombinant trypanothione reductase by spectrophotometry-based non competitive inhibition type assay
Sequence (P28593 whole entry): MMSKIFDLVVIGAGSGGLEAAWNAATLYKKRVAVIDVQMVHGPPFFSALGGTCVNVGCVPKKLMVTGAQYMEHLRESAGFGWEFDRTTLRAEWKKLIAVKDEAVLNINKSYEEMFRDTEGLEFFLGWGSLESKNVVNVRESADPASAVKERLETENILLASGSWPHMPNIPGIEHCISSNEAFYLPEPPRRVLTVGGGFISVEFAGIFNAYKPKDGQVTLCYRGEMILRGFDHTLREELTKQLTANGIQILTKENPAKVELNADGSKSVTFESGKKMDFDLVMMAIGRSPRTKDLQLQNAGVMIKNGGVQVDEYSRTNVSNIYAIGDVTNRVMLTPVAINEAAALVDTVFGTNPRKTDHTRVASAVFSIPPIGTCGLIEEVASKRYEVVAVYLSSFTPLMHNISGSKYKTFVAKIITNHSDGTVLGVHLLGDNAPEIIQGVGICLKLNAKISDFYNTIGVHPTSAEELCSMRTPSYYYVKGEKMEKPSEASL
Your reply should be a number followed by the unit it is expressed in.

CN(C)CCOc1cc2nc(N3CCN(C4=CC(=O)c5ccccc5C4=O)CC3)nc(N)c2cc1OCCN(C)C
11 µM

Q: Would you kindly share the measured Ki for `COC1=CC(=O)C=C(N2CCN(c3nc(N)c4cc(OC)c(OC)cc4n3)CC2)C1=O` ?
A: 32 µM

====

target: Trypanothione reductase (Trypanosoma cruzi) (UniProt P28593); experiment: Inhibition of Trypanosoma cruzi recombinant trypanothione reductase at 100 uM by spectrophotometry using 100 uM trypanothione disulfide
Sequence (P28593 whole entry, looked up): as the sequence (P28593 whole entry) above
Entries and their inhibition values follow.
Report the value in % with no unit label.

Some solved cases for reference:
COc1cc2nc(N3CCN(C(=O)Cc4c[nH]c5ccccc45)CC3)nc(N)c2cc1OC
23
COc1cc2nc(N3CCN(C(=O)[C@@H]4Cc5ccccc5CN4)CC3)nc(N)c2cc1OC
0
COc1cc2nc(N3CCN(C(=O)[C@H]4Cc5ccccc5CN4)CC3)nc(N)c2cc1OC
0
CN(C)CCOc1cc2nc(N3CCN(C(=O)Cc4c[nH]c5ccccc45)CC3)nc(N)c2cc1OCCN(C)C
33

Moving on to another compound below.
Q: Field request: inhibition | item: `COC1=CC(=O)C=C(N2CCN(c3nc(N)c4cc(OC)c(OC)cc4n3)CC2)C1=O`
A: 75

====

system: Trypanosoma cruzi; assay: Antitrypanosomal activity against Trypanosoma cruzi amastigotes infected in rat L6 cells; format: functional, organism-based
assay-endpoint: IC50 (µM)
Reply numerically in µM, unit not repeated.

Q: Value wanted: IC50 (Trypanosoma cruzi) of entry `COc1cc2nc(N3CCN(C(=O)Cc4c[nH]c5ccccc45)CC3)nc(N)c2cc1OC`
A: 10.2

Q: Record: `COc1cc2nc(N3CCN(C(=O)[C@H]4Cc5ccccc5CN4)CC3)nc(N)c2cc1OC`
A: 27.6

Q: // next record `COc1cc2nc(N3CCN(C4=CC(=O)c5ccccc5C4=O)CC3)nc(N)c2cc1OC`
A: 3.68

Q: Another compound: `COc1cc2nc(N3CCN(C(=O)[C@@H]4Cc5ccccc5CN4)CC3)nc(N)c2cc1OC`
A: 14.3

Q: Now this one: `COC1=CC(=O)C=C(N2CCN(c3nc(N)c4cc(OC)c(OC)cc4n3)CC2)C1=O`
A: 35.6
